Where do these numbers come from? They come from paper PMC6696238.

Entries and their measured melting point follow.

Examples with their reported melting point follow.
- compound: "COc1ccc2nc(NC(=O)NCc3ccc(O)c(Cl)c3)sc2c1"
  measured.metric: "melting point"
  value.observed: "249 to 251 °C"
- compound: "O=C(Nc1ccc(O)c(Cl)c1)Nc1nc2c(s1)CCCC2"
  measured.metric: "melting point"
  value.observed: "258 to 260 °C"
- compound: "COc1ccc2nc(NC(=O)Nc3ccc(CO)c(Cl)c3)sc2c1"
  measured.metric: "melting point"
  value.observed: "229 to 230 °C"

Identify measured melting point associated with COc1ccc2nc(NC(c3ccc(O)c(Cl)c3)P(=O)(OC)OC)sc2c1 (centres unmarked)
198 to 199 °C

Identify measured melting point associated with O=C(Nc1ccc(O)c(Cl)c1)Nc1ccc2ncsc2c1
224 to 226 °C

Identify measured melting point associated with COc1ccc(CCNC(=O)Nc2ccc(O)c(Cl)c2)cc1
161.5 to 163.5 °C

Identify measured melting point associated with COc1ccc2nc(NC(=O)Nc3ccc(O)c(C)c3)sc2c1
262 to 263 °C

Identify measured melting point associated with COc1ccc2nc(NC(=O)Nc3ccc(O)nc3)sc2c1
272 to 273 °C

Identify measured melting point associated with O=C(Nc1ccc(O)c(Cl)c1)Nc1nc2ccc(SC(F)(F)F)cc2s1
256 to 258 °C

Identify measured melting point associated with COc1ccc2nc(NC(=O)Nc3ccc(O)c(N)c3)sc2c1
180 to 181 °C

Identify measured melting point associated with COc1ccc2nc(NC(=O)Nc3ccc(O)c(I)c3)sc2c1
241 to 242 °C

---

Target: 17β-HSD10 (Homo sapiens)
Sequence (Q99714 1-261): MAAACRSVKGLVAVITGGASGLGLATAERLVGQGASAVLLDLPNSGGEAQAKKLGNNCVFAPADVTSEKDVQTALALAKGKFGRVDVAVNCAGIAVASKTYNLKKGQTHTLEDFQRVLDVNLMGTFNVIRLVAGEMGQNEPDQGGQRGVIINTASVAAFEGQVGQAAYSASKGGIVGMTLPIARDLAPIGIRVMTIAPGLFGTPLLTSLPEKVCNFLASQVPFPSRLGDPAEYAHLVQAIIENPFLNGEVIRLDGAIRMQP
Test: (−)-CHANA assay, 17β-HSD10 activity within cells
Type: cell-based
Set-up: mts (prefix as printed); expressed in transfected cells; host or cells: HEK293
Conditions: HEK293 mts17β-HSD10 cells, 20 µM (−)-CHANA, 95% CI
Entries and their measured pIC50 follow.
Lab note — pIC50 values are minus log10 of concentrations in M.

Examples with their reported pIC50 follow.
- entry.smiles: "CC(C)(C)c1ccc2nc(NC(=O)Nc3ccc(O)c(Cl)c3)sc2c1"
  pIC50: 5.42
- entry.smiles: "N#CSc1ccc2nc(NC(=O)Nc3ccc(O)c(Cl)c3)sc2c1"
  pIC50: 4.05
- entry.smiles: "CC(C)c1ccc2nc(NC(=O)Nc3ccc(O)c(Cl)c3)sc2c1"
  pIC50: 5.10

Report pIC50 on 17β-HSD10 (Homo sapiens) for this entry: CCOc1ccc2nc(NC(=O)Nc3ccc(O)c(Cl)c3)sc2c1
5.64

Report pIC50 on 17β-HSD10 (Homo sapiens) for this entry: COc1ccc2nc(NC(=O)Nc3ccc(O)c(I)c3)sc2c1
4.77

Report pIC50 on 17β-HSD10 (Homo sapiens) for this entry: COc1ccc2nc(NC(=O)Nc3ccc(O)c(Br)c3)sc2c1
4.98

---

Tested on: HEK293 mts17β-HSD10 cells
Assay: Lactate dehydrogenase (LDH) cytotoxicity assay
Type: cell-based
Details: 25 μM, 24 h
// N strictly below 20% in LDH Cytotoxicity with 25 μM Compound; Y otherwise

Use these answered entries as a reference point.
- molecule: "O=C(Nc1ccc(O)c(Cl)c1)Nc1ccc(O)c(Cl)c1 [Compound 78, 1,3-Bis(3-chloro-4-hydroxyphenyl)urea]"
  class.label: "N"
- molecule: "N#CSc1ccc2nc(NC(=O)Nc3ccc(O)c(Cl)c3)sc2c1 [Compound 65]"
  class.label: "N"
- molecule: "CC(C)c1ccc2nc(NC(=O)Nc3ccc(O)c(Cl)c3)sc2c1 [Compound 61]"
  class.label: "Y"
- molecule: "COc1ccc2nc(NC(=O)Nc3ccc(O)c(I)c3)sc2c1 [Compound 6]"
  class.label: "Y"
- molecule: "O=C(Nc1ccc(O)c(Cl)c1)Nc1nc2ccc(SC(F)(F)F)cc2s1 [Compound 64]"
  class.label: "Y"
- molecule: "CCOc1ccc2nc(NC(=O)Nc3ccc(O)c(Cl)c3)sc2c1 [Compound 63]"
  class.label: "N"
- molecule: "CC(C)(C)c1ccc2nc(NC(=O)Nc3ccc(O)c(Cl)c3)sc2c1 [Compound 62]"
  class.label: "Y"
- molecule: "CS(=O)(=O)c1ccc2nc(NC(=O)Nc3ccc(O)c(Cl)c3)sc2c1 [Compound 66]"
  class.label: "N"

hey, is LDH Cytotoxicity with 25 μM Compound for this one >= 20%? O=C(Nc1ccc(O)c(Cl)c1)Nc1nc2ccc(S(=O)(=O)C(F)(F)F)cc2s1 [Compound 67]
Y

hey, is LDH Cytotoxicity with 25 μM Compound for this one >= 20%? COc1ccc2nc(NC(=O)Nc3ccc(O)c(Br)c3)sc2c1 [Compound 5]
N

---

Target: UniProt Q99714
Assay: mechanism of inhibition experiments (Hanes–Woolf kinetics)
Assay type: biochemical
Set-up: made in house
measured.metric: Mechanism of Inhibition with Respect to Both Acetoacetyl-CoA and NADH

Examples with their reported Mechanism of Inhibition with Respect to Both Acetoacetyl-CoA and NADH follow.
- compound: "CCOc1ccc2nc(NC(=O)Nc3ccc(O)c(Cl)c3)sc2c1"
  value.observed: "Mixed"
- compound: "O=C(Nc1ccc(O)c(Cl)c1)Nc1nc2ccc(SC(F)(F)F)cc2s1"
  value.observed: "Mixed"
- compound: "COc1ccc2nc(NC(=O)Nc3ccc(O)c(Br)c3)sc2c1"
  value.observed: "Mixed"
- compound: "CC(C)(C)c1ccc2nc(NC(=O)Nc3ccc(O)c(Cl)c3)sc2c1"
  value.observed: "Mixed"
- compound: "O=C(Nc1ccc(O)c(Cl)c1)Nc1ccc(O)c(Cl)c1 [Compound 78, 1,3-Bis(3-chloro-4-hydroxyphenyl)urea]"
  value.observed: "Mixed"

Identify measured Mechanism of Inhibition with Respect to Both Acetoacetyl-CoA and NADH associated with O=C(Nc1ccc(O)c(Cl)c1)Nc1nc2ccc(S(=O)(=O)C(F)(F)F)cc2s1
Mixed

Identify measured Mechanism of Inhibition with Respect to Both Acetoacetyl-CoA and NADH associated with CC(C)c1ccc2nc(NC(=O)Nc3ccc(O)c(Cl)c3)sc2c1
Mixed

Identify measured Mechanism of Inhibition with Respect to Both Acetoacetyl-CoA and NADH associated with COc1ccc2nc(NC(=O)Nc3ccc(O)c(I)c3)sc2c1
Mixed

Identify measured Mechanism of Inhibition with Respect to Both Acetoacetyl-CoA and NADH associated with N#CSc1ccc2nc(NC(=O)Nc3ccc(O)c(Cl)c3)sc2c1
Mixed

Identify measured Mechanism of Inhibition with Respect to Both Acetoacetyl-CoA and NADH associated with CS(=O)(=O)c1ccc2nc(NC(=O)Nc3ccc(O)c(Cl)c3)sc2c1
Mixed

---

Biological target: 17β-HSD10 (Homo sapiens, UniProt Q99714)
Sequence (Q99714 1-261): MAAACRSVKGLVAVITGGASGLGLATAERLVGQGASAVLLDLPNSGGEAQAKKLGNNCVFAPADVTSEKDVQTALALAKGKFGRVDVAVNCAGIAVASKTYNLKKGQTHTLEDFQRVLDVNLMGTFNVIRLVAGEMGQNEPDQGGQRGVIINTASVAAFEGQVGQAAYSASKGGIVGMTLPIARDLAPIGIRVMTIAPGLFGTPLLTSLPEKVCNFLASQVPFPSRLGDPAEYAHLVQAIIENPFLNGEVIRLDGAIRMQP
Assay: recombinant 17β-HSD10 enzyme activity assay (primary NADH screen and dose response)
Type: biochemical
Parameters: made in house
Conditions: relative remaining activity, 25 μM compound, six independent measurements ± SEM; read-out: 17β-HSD10 activity in the presence of compound at 25 μM (Primary Screen)
measured.metric: remaining activity at 25 µM (%)
Give the value, in units of %, as a plain number.

Examples with their reported remaining activity at 25 µM follow.
- compound: "COc1ccc2nc(NC(=O)Nc3ccc(O)nc3)sc2c1 [Compound 8]"
  unit.tag: "%"
  remaining activity at 25 µM: 63.3
- compound: "CC(C)c1ccc2nc(NC(=O)Nc3ccc(O)c(Cl)c3)sc2c1 [Compound 61]"
  unit.tag: "%"
  remaining activity at 25 µM: 36.5

Identify measured remaining activity at 25 µM associated with COc1ccc(CCNC(=O)Nc2ccc(O)c(Cl)c2)cc1 [Compound 75]
73.3

Identify measured remaining activity at 25 µM associated with COc1ccc2nc(NC(=O)Nc3ccc(N)c(Cl)c3)sc2c1 [Compound 10]
117

Identify measured remaining activity at 25 µM associated with COc1ccc2nc(NC(=O)Nc3ccc(O)c(C#N)c3)sc2c1 [Compound 4]
96.5

Identify measured remaining activity at 25 µM associated with COc1ccc2nc(NC(=O)Nc3ccc(N)cc3)sc2c1 [Compound 9]
105

Identify measured remaining activity at 25 µM associated with CS(=O)(=O)c1ccc2nc(NC(=O)Nc3ccc(O)c(Cl)c3)sc2c1 [Compound 66]
21.6

Identify measured remaining activity at 25 µM associated with COC(=O)c1cc(C(Nc2nc3ccc(OC)cc3s2)P(=O)(OC)OC)ccc1O (centres unmarked) [Compound 36, reference compound]
95.9
